Known MIC of a selection of compounds
tested on: Staphylococcus aureus; test: In vitro antibacterial activity against Staphylococcus aureus MB9; type: functional
Give just the numeric value; µg/mL need not be written.

// worked examples, MIC included
{"structure_string": "CC(=O)OCC1=C(C(=O)O)N2C(=O)[C@@H](NC(=O)/C(=N\\O)c3cnc(N)s3)[C@H]2SC1", "MIC, µg/mL": 0.5}
{"structure_string": "C/C=C(\\C)C(=O)OCC1=C(C(=O)O)N2C(=O)[C@@H](NC(=O)/C(=N\\O)c3cnc(N)s3)[C@H]2SC1", "MIC, µg/mL": 0.5}
{"structure_string": "CO/N=C(\\C(=O)N[C@@H]1C(=O)N2C(C(=O)O)=C(COC(C)=O)CS[C@H]12)c1csc(N)n1", "MIC, µg/mL": 4}

We now examine a further compound.
(Q) What value of MIC on Staphylococcus aureus does CC(C)=CC(=O)OCC1=C(C(=O)O)N2C(=O)[C@@H](NC(=O)/C(=N\O)c3cnc(N)s3)[C@H]2SC1 have?
(A) 0.5
